This collection of values is drawn from PubChem BioAssay (NCI).

Test system: HS 578T breast
Assay: NCI tumour cell line growth inhibition, 48 h
Overview of recorded TGI for various compounds

compound	TGI
OCCN(CCO)c1nc(N2CCCCC2)c2nc(N(CCO)CCO)nc(N3CCCCC3)c2n1	79.6 µM
COc1nc2ccc(CNc3ccc(C(=O)NC(CCC(=O)O)C(=O)O)cc3)cc2nc1OC (centres undefined)	> 100 µM
COc1cc2c(c(OC)c1OC)-c1c(c3ccc([N+](=O)[O-])cc3c(=O)n1CCCBr)C2=O	> 100 µM
Cn1c2ccccc2c2c3c(c4c5ccccc5n(C5OC(CO)C(O)C(O)C5O)c4c21)C(=O)OC3=O (centres undefined)	> 100 µM
O=S1(=O)c2ccccc2N2C(c3ccccc3)=NOC2(c2ccccc2)CC1c1ccc(Br)cc1 (centres undefined)	> 100 µM
Cc1ccc(-c2nc(/C=N/Nc3cc(C)nc4ccc(Br)cc34)c(C)o2)cc1	38.6 µM
CCOc1ccccc1Nc1ccc(N)cc1S(=O)(=O)O	> 100 µM
S=C1SCN(Cc2ccccc2)CN1Cc1ccccc1	25.6 µM
COc1cc2c(/C=C3/C(=O)Nc4ccc(O)cc43)c(Cl)n(Cc3cc(OC)c(OC)c(OC)c3)c2cc1C	> 30.5 µM
